Recorded values, source patent US6331555A.

Assay: Effects of A10 on mortality (mice implanted with C6 cells)
Assay type: in vivo, mouse
Details: mouse, in vivo, ip; 25 mg/kg/day (PBTE:D5W), 67 treatments, n 8
readout_type: mortality (%)

smiles_text	recorded_number
Cc1oncc1C(=O)Nc1ccc(C(F)(F)F)cc1	0

====

Some compounds, each annotated with its measured mortality at 240 h.
Assay: C6 glioma SC xenograft in mice
Assay type: in vivo
Settings: rat, in vivo, ip; 60 mg/kg (G24 at d10)
readout_type: mortality at 240 h (%)

smiles_text	recorded_number
COc1cc(C=C(C#N)C(=O)NCCCc2ccccc2)cc(I)c1O	0
Cc1cc2nc(-c3ccccc3)c(-c3ccc(O)c(O)c3)nc2cc1C	100

====

Molecular target: PDGF-R (U1242) (Homo sapiens)
Construct: U1242 (PDGF-β receptor); host or cells: U1242 MG glioma cells
Sequence (P09619 33-1106): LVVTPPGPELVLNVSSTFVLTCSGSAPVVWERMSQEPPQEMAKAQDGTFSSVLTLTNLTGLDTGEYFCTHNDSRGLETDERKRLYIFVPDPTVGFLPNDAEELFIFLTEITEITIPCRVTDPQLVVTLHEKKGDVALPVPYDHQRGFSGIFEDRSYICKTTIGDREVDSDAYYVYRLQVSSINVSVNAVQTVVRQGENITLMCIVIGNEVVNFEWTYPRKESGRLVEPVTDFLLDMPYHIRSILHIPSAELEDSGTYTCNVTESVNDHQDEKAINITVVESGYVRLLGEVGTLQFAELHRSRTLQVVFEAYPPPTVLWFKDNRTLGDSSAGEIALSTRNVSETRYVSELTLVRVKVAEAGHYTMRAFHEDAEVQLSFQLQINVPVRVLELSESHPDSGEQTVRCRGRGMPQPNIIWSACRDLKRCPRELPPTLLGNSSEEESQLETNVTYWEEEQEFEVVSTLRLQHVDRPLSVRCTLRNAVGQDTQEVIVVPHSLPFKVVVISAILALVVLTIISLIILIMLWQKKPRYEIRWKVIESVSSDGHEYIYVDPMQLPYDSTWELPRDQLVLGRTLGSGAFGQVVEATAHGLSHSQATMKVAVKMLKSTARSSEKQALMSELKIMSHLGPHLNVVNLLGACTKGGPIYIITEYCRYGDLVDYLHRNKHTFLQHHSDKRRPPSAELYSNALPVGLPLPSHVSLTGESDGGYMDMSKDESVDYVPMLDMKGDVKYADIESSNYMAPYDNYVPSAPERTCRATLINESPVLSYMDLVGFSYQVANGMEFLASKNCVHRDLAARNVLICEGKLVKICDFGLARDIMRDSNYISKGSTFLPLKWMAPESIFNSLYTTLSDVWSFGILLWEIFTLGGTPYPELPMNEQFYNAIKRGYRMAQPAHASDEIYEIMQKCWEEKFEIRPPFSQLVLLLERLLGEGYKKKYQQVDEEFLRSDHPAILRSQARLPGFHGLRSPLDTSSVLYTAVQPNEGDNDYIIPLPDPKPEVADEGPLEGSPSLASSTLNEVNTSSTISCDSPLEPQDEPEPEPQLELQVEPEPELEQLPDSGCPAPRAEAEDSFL
Test: U1242 kinase (PDGF-R activity)
Format: cell-based
Conditions: W = done in Western assay; read-out: U1242 KINASE IC50 (W)
This listing pairs compounds with measured log10 IC50.
readout_type: log10 IC50 (log10 of the value in µM)

compound	log10 IC50
c1ccc(-c2cnc3cc4ccccc4cc3n2)cc1	-0.05
COc1cc2ncc(-c3ccccc3)nc2cc1OC	-0.10
CC1c2nc3ccccc3c(=O)n2C(c2ccc(O)c(O)c2)N1Cc1ccccc1 (stereo not shown)	1.40
N#CC(=Cc1cc(O)c(O)c(Br)c1)S(=O)(=O)C(C#N)=Cc1cc(O)c(O)c(Br)c1	0.00
N#CC(=Cc1cc(O)c(O)c(Br)c1)C(=O)NCCCNC(=O)C(C#N)=Cc1cc(O)c(O)c(Br)c1	0.48
O=c1c2ccccc2nc(C=Cc2ccc(O)c(O)c2)n1CCO	1.65
O=C(c1ccccc1)c1ccc2ncc(-c3ccccc3)nc2c1	0.78

====

Biological target: EGFR (Homo sapiens, UniProt P00533)
Construct: expressed in transfected cells; host or cells: NIH3T3 mouse fibroblasts, retroviral vector
Sequence (P00533 25-1210): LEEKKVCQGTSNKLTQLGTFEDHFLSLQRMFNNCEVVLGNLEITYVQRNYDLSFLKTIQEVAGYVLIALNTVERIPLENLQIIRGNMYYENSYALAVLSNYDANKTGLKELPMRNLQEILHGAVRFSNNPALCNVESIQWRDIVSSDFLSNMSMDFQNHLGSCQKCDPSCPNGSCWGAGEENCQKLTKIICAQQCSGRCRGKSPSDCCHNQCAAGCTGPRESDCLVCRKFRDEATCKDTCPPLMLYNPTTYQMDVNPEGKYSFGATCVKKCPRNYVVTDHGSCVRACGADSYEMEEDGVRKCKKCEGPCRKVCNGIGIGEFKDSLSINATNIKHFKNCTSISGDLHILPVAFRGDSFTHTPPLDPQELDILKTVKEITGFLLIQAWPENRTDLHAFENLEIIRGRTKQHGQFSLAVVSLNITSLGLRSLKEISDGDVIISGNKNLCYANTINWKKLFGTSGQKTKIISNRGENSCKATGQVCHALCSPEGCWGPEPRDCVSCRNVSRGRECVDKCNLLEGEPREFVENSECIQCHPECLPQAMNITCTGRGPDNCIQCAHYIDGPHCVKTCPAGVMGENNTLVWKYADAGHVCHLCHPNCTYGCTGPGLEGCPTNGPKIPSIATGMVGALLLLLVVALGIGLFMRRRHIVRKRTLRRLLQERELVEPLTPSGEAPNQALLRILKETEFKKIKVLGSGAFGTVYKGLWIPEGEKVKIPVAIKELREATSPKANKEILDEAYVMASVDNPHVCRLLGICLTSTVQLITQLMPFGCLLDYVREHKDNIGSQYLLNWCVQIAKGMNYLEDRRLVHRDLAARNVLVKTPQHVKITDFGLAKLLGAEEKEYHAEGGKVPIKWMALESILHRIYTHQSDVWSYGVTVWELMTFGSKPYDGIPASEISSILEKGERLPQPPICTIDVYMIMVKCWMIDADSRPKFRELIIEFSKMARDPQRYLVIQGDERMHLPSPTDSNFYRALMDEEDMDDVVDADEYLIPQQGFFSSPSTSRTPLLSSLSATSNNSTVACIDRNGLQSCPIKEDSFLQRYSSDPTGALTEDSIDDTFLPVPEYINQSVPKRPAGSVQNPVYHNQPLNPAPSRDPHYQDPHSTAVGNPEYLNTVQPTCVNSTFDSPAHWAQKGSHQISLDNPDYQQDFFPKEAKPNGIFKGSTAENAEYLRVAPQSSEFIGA
Assay: Receptor tyrosine kinase inhibition, EGFR
Assay type: cell-based
Conditions: W = done in Western assay; read-out: EGFR ID50 (W)
pIC50: −log10 of the molar value.

smiles_text	experimental_target	pIC50
Cc1cc2nc(-c3ccccc3)c(=O)[nH]c2cc1C	EGFR (Homo sapiens, UniProt P00533)	3.30

====

System: DU145
Assay: Tumor cell line growth
Assay type: cell-based
Settings: Homo sapiens, DU-145, 96 h; prostate, 4 days
readout_type: IC50

smiles_text	result
Cc1oncc1C(=O)Nc1ccc(C(F)(F)F)cc1	> 100 µM

====

Biological target: FLK-1 (Mus musculus, UniProt P35918)
Construct: expressed in transfected cells; host or cells: NIH3T3 mouse fibroblasts, retroviral vector
Sequence (P35918 20-1345): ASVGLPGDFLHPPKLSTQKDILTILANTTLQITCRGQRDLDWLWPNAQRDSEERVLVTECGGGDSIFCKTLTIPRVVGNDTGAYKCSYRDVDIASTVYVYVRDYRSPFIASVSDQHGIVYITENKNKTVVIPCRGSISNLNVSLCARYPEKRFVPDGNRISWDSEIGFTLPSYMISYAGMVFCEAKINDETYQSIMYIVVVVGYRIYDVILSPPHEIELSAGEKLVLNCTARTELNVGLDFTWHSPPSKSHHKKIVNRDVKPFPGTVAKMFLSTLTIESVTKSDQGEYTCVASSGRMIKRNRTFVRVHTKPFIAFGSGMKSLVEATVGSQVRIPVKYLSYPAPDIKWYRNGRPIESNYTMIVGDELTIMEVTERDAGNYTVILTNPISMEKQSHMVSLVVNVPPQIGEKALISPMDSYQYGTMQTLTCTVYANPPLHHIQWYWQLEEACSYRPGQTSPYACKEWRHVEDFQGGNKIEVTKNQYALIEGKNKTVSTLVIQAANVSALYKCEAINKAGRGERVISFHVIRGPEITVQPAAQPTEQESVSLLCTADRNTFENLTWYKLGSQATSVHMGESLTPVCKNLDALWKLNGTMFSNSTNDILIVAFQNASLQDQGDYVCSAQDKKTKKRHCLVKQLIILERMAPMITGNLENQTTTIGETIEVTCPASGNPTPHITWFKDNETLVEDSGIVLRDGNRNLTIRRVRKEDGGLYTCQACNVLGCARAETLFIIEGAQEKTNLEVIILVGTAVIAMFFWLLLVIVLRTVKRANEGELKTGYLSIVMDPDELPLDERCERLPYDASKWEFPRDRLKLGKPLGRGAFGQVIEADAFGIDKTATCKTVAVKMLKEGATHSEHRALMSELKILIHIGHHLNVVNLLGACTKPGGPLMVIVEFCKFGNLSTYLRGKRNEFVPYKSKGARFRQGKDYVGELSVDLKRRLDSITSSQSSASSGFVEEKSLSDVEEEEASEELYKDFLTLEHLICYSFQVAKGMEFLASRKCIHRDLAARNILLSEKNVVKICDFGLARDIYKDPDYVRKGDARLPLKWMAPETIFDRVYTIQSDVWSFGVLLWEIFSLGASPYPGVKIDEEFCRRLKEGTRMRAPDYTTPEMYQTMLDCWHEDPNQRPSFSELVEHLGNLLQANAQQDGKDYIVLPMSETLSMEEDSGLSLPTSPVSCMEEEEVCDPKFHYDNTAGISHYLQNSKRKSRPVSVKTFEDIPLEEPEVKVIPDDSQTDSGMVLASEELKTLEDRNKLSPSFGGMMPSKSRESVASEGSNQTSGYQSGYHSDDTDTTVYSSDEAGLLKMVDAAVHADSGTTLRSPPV
Test: Receptor tyrosine kinase inhibition, FLK-1
Type: cell-based
Conditions: read-out: FLK-1 IC50
readout_type: IC50

smiles_text	experimental_target	result
Cc1cc2nc(C(=O)O)c(-c3ccccc3)nc2cc1C	FLK-1 (Mus musculus, UniProt P35918)	> 50 µM
N#CC(=Cc1ccc(O)c(O)c1)C(=O)NCc1ccc(F)cc1	FLK-1 (Mus musculus, UniProt P35918)	> 500 µM
Cc1cc2ncc(Nc3ccc(I)cc3)nc2cc1C	FLK-1 (Mus musculus, UniProt P35918)	10 µM
CCOc1ccccc1NC(=O)C(=O)NN=Cc1ccc(O)c(O)c1	FLK-1 (Mus musculus, UniProt P35918)	> 50 µM
CN(C)CCCn1cc(C=C(C#N)c2[nH]nc(N)c2C#N)c2ccccc21	FLK-1 (Mus musculus, UniProt P35918)	> 50 µM
